assay: NCI Yeast Anticancer Drug Screen. Data for the mec2-1 strain (AID 157); details: S. cerevisiae mec2-1 strain, at 50.0 µM, hits give high values
This is part of a sample that, as a whole, favours compounds with a hit. Of some 79,000 tested, about 15% had one in any assay.
quantityKind: growth inhibition (%)
The figure you give is taken to be in %; do not add the unit.

Below: 3 molecules and their reported growth inhibition.
Cc1cnc(Br)c(Br)c1
0.8
NS(=O)(=O)c1ccc(N=C2C(=O)Nc3ccccc32)cc1
-6.1
O=c1oc2ccccc2c2c1Sc1ccccc1N2
-22

Q: Consider the molecule shown here: CC1(C)CCC[C@@]2(C)C1C[C@H](O)[C@@]1(C)O[C@@](C)([C@H](O)CO)CCC21 (stereo not given in full) What is its recorded growth inhibition?
Result: 33

Q: Param item = NCCCCCCN ; retrieve measured growth inhibition.
Result: -6.05

Q: I'd like to know its growth inhibition. The molecule in question is O=c1[nH]c2cc([N+](=O)[O-])ccc2nc1/C(=N\Nc1ccccc1)C(O)c1ccc2c(c1)OCO2 (stereo not given)
Result: 5.4

Q: Could you tell me which growth inhibition is on file for C/C=C(\C)c1cc(=O)c2c(C)cc3c(c2o1)C(=O)c1c(O)c(C2CC(C)(N(C)C)C(OC(C)=O)C(C)O2)cc(C2CC(N(C)C)C(O)C(C)O2)c1C3=O (stereo not given) ?
Result: 1.95

Q: So what does the record say about growth inhibition for [O-]/[N+](=C\c1ccc(OCc2ccccc2)cc1)c1ccccc1 ?
Result: -18.4

Q: Data request, read-out growth inhibition, for S=C(SNC1CCCCC1)SNC1CCCCC1
Result: -14.2

Q: Quick one: growth inhibition of CC(=O)Nc1c(Cl)cccc1[N+](=O)[O-] ?
Result: -18.8

Q: Name the reported growth inhibition value associated with the molecule COc1cc(CN(c2ccccc2C(=O)O)S(=O)(=O)c2ccc(C)cc2)ccc1[N+](=O)[O-]
Result: 2.65

Q: GET /values?readout=growth inhibition&item= CCOC(=O)/C=C(/C)C#N
Result: -3.7

Q: Please look up its growth inhibition: O=c1[nH]cnc2c1ncn2CCCCc1ccccc1
Result: -5.25

Q: What does the data say about its growth inhibition? Entry: CSCCCN(CCCSC)CCCSC
Result: -12.9

Q: Form field: reported growth inhibition of NCC1OCOC2C(C(=O)O)OCOC12 (stereo not given)
Result: 2.6

Q: # query: growth inhibition of entry O=C(c1cccc(C(=O)N2CCCC2)n1)N1CCCC1
Result: -13.2

Q: Record request: growth inhibition value, item Nc1ccc(I)cn1
Result: 5.7

Q: Find the recorded growth inhibition belonging to COc1cc2c(c([N+](=O)[O-])c1)NC(=O)CS2 and report it.
Result: -60.5

Q: Please give the measured growth inhibition for this molecule: CCCCN(CCCC)CC(O)C=O (stereo not given)
Result: -3.95

Q: Look at this molecule and give its reported growth inhibition. Nc1c(-c2nc3ccccc3s2)[n+]([O-])c2ccccc2[n+]1[O-]
Result: 20.6

Q: What does the data say about its growth inhibition? Entry: N#C/C(=C\c1ccco1)C(N)=O
Result: -7

====

We begin with a simple list: items and their reported growth inhibition.
assay: NCI Yeast Anticancer Drug Screen. Data for the mlh1 rad18 strain (AID 175); details: S. cerevisiae mlh1 rad18 strain growth inhibition; at 50.0 µM; hits give high values
Compounds without any hit were thinned out: in the full panel of roughly 79,000, 15% have a hit.
Write the answer as a number in %, unit excluded.

These recorded examples may help you get a feel for the data.
C=CCC(C(=C)C)(C(=O)OCC)C(=O)OCC
-31.9
COc1ccc2c(c1)Sc1c(Cl)c3c(c(Cl)c1=N2)Sc1cc(OC)ccc1N=3
13.9
C=C(Cl)C(=C)CCC(Cl)C(C)C (stereo unspecified)
0.55
CN(C)CCNC1c2ccccc2-c2ccccc21
-9
CN(C)c1nc(Oc2nc(N(C)C)nc(N(C)C)n2)nc(N(C)C)n1
-31.9

With those in mind, consider the next molecule.
Q: Would you mind telling me what growth inhibition value was observed for COC(=O)c1ccccc1CC1Cc2c(C)ccc(C)c2C1=O (stereo unspecified) ?
Result: 17.8

====

Recorded growth inhibition values for a group of compounds are listed next.
assay: NCI Yeast Anticancer Drug Screen. Data for the bub3 strain (AID 167); conditions: S. cerevisiae bub3 mutant strain, at 50.0 µM, hits give high values
About 79,000 compounds went through this panel and 15% of them were active in at least one assay; those are over-represented in the sample as a whole. The source made the active and inactive calls. No stated cut-off is given here; in the data, active means growth inhibition above about 70%; inactive means the rest.

Q: Given the entry CC1(C)C(=O)N2c3ccccc3C3(CC(N4C(=O)c5ccccc5C4=O)C(=O)O3)C2N1C(=O)OCc1ccccc1 (stereo not given) , report its measured growth inhibition.
Result: 14.1% (inactive)

====

growth inhibition: recorded values
test: NCI Yeast Anticancer Drug Screen. Data for the rad50 strain (AID 155);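 further: 0% = growth of vehicle-only cultures of the same strain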; conditions: S. cerevisiae rad50 strain growth inhibition; at 50.0 µM; hits give high values
About 79,000 compounds went through this panel and 15% of them were active in at least one assay; those are over-represented in the sample as a whole.
Number only, in %; omit the unit.

Field: example entries. Status: answers known.
CC1Oc2ccc3ccccc3c2C(C)N1C (stereo not given)
-0.55
O=C1OC(=O)C2C1C1(Cl)CC2(Cl)C(Cl)=C1Cl (stereo not given)
-3.05
O=[N+]([O-])c1ccccc1C(Nc1nncs1)Nc1nncs1
17.3
CCCc1ccc(N=Nc2ccc(C(=O)O)cc2)cc1
-1.25
O=C(O)C(Cc1ccccc1)N1C(=O)c2ccccc2C1=O (stereo not given)
1.7

Q: What does the record list as growth inhibition for COc1ccc(S(=O)Cc2cc(OC)c(OC)c(OC)c2)cc1 (stereo not given) ?
Result: -7.9

Q: Could you share which growth inhibition value was measured for O=C(NCCCCCCNC(=O)NCc1ccco1)NCc1ccco1 ?
Result: -22.7

Q: Param item = C/C(N=NS(=O)(=O)c1ccccc1)=C1\C=CC=CN1O ; retrieve measured growth inhibition.
Result: -7.9

Q: Please report the recorded growth inhibition for Oc1ccc2c(c1)-c1ccccc1C2 .
Result: 38.8

Q: // lookup growth inhibition for CC(C)c1cccc(C(C)C)c1NC(=O)OC1CCCCC1
Result: -11.7

Q: growth inhibition for Cc1ccc(O)c(Cc2cc(C)cc(Cc3cc(C)ccc3O)c2O)c1 ?
Result: 30.2

Q: What does the data say about its growth inhibition? Entry: Cc1ccc(S(=O)(=O)Oc2ccccc2OS(=O)(=O)c2ccc(C)cc2)cc1
Result: 3.4

Q: Request the reported growth inhibition associated with O=C(O)CCC(=O)Nc1cccc(C(F)(F)F)c1
Result: -5.9

Q: For the molecule CCOC1C=CCCO1 (stereo not given) , what growth inhibition is on record?
Result: 20

====

Below is a list of entries, each paired with its recorded growth inhibition value.
assay: NCI Yeast Anticancer Drug Screen. Data for the cln2 rad14 strain (AID 165);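 further: 0% = growth equal to vehicle treated cultures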; details: S. cerevisiae cln2 rad14 strain, at 50.0 µM, hits give high values
Compounds without any hit were thinned out: in the full panel of roughly 79,000, 15% have a hit.
Provide only the numeric value, understood in %.

Q: Field request: growth inhibition | item: Fc1cccc(C2SCc3nc4cc5ccccc5cc4n32)c1 (configuration not stated)
Result: -0.45

Q: For the molecule CCCc1c(OC(=O)c2ccc([N+](=O)[O-])cc2)cccc1OC(=O)c1ccc([N+](=O)[O-])cc1 , what growth inhibition is on record?
Result: 18.1

Q: Find the recorded growth inhibition belonging to O=S(Cc1cc2c(cc1Br)OCO2)c1ccccc1 (configuration not stated) and report it.
Result: -22.4

Q: Which growth inhibition value is on record for Cc1ccc(NC(=O)c2ccc(C)c(N)c2)c(C)c1 ?
Result: -9.7

Q: Requested read-out: growth inhibition. Entry: CC(=O)c1sc(-c2nc(C)c(C(=O)/C=C\c3ccc(/C=C\C(=O)c4sc(-c5nc(C)c(C(C)=O)s5)nc4C)cc3)s2)nc1C
Result: -11.6

====

Experiment: NCI Yeast Anticancer Drug Screen. Data for the mec2-1 strain (AID 157)
Conditions: S. cerevisiae mec2-1 strain, at 50.0 µM, hits give high values
Method: Growth inhibition of yeast strains with defined genetic alterations is measured as a screen for potential anti-cancer activity. Selected strains with alterations in DNA damage repair or cell cycle control were exposed to compounds and growth inhibition was measured relative to vehicle treated controls. The strain used in this assay is mec2-1
Compounds without any hit were thinned out: in the full panel of roughly 79,000, 15% have a hit.
growth inhibition by entry:
Please give a number only; it is taken to be in %.

Consider the following illustrative entries.
COc1cc2cccnc2c2[nH]c(=O)c3c(c12)CCC3
9.35
CC1CCCC1N (configuration not stated)
-12.5
O=C1CNC(=O)N1c1ccccc1
5.75
Cc1cc(=O)[nH]c(N/N=C/c2ccco2)n1
-48.8
Cc1c(F)cccc1NC(=O)OC(C)C
-5.15

Q: Entry under review: CCOC(=O)CC(CSCP(=O)(OCC)OCC)C(=O)OCC (configuration not stated) . Reported growth inhibition?
Result: -1.35

Q: // query growth inhibition value for entry O=C(/C=C/c1ccc(OCCSCCCCCCCCCCSCCOc2ccc(/C=C/C(=O)c3ccc(Cl)cc3)cc2)cc1)c1ccc(Cl)cc1
Result: -25.1

Q: Request the reported growth inhibition associated with CCOC(=O)CN1C(=O)CCC1=O
Result: 2.55

Q: Consider the compound shown here: CCC(=O)OC1(C(=O)OC)CCN(C)CC1 What is its recorded growth inhibition?
Result: 2.95

Q: If you can, please state the reported growth inhibition value of NC(CSc1nc2ccccn2c1[N+](=O)[O-])C(=O)O (configuration not stated) .
Result: -40.8

Q: Sample CCCCCCC(c1c(O)cc(C)[nH]c1=O)c1c(O)cc(C)[nH]c1=O — what was its growth inhibition?
Result: -8.5

Q: Any idea what its growth inhibition is? The compound is N#Cc1c2c(c(N3CCCCC3)n3c1nc1ccccc13)CCC2
Result: 13.9
